Catalogue of compounds with associated pIC50
measurement-target: UniProt:P00748
Sequence (P00748 373-615 limits assumed): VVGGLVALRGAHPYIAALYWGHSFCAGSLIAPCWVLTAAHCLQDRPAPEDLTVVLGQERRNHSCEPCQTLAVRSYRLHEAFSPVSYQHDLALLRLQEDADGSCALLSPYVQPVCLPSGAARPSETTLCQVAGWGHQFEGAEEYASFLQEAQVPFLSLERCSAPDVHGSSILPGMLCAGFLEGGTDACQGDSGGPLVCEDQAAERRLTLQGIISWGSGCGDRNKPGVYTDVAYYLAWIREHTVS
Sequence (P00748 20-372 partner limits assumed): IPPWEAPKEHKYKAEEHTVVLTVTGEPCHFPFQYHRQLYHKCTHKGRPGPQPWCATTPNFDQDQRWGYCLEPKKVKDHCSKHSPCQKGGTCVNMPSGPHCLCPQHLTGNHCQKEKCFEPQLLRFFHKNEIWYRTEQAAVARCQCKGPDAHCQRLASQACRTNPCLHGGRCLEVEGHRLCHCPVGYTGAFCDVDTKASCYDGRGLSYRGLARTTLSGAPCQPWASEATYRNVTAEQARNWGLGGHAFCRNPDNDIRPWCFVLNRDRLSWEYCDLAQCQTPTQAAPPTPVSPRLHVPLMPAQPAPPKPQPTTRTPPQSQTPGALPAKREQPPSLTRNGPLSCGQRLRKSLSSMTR
pIC50: −log10 of the molar value.
reported-endpoint: pIC50

| chemical-string | reported-endpoint | recorded-result |
| --- | --- | --- |
| Nc1nccc2cc(CNC(=O)c3cc(Cl)cnc3NCC3CCN(CC4CC4)CC3)ccc12 | pIC50 | 6.00 to 6.52 |
| CN1CCC(CNc2nccnc2C(=O)Nc2ccc(-c3n[nH]c(=O)[nH]3)cc2)CC1 | pIC50 | 4.40 to 5.00 |
| Nc1nccc2cc(CNC(=O)c3cnc(Oc4ccccc4Cl)c(Cl)c3)ccc12 | pIC50 | 4.40 to 5.00 |
| Cn1cc(CN2CCC(CNc3ncc(Cl)cc3C(=O)NCc3ccc4c(N)nccc4c3)CC2)cn1 | pIC50 | 6.00 to 6.52 |
| Nc1nccc2cc(CNC(=O)c3cncc(Br)c3)ccc12 | pIC50 | 4.40 to 5.00 |
| Nc1nccc2cc(CNC(=O)c3cc(Cl)cnc3NCCN3CCOCC3)ccc12 | pIC50 | 5.00 to 5.52 |
| Nc1nccc2cc(CNC(=O)c3cc(Cl)cnc3NCC34CCN(CC3)CC4)ccc12 | pIC50 | 6.00 to 6.52 |
| CC(=O)NCCCNc1ncc(Cl)cc1C(=O)NCc1ccc2c(N)nccc2c1 | pIC50 | 5.00 to 5.52 |

* * *

measurement-target: Human Factor XIIa (Homo sapiens, UniProt P00748)
Sequence (P00748 373-615 limits assumed): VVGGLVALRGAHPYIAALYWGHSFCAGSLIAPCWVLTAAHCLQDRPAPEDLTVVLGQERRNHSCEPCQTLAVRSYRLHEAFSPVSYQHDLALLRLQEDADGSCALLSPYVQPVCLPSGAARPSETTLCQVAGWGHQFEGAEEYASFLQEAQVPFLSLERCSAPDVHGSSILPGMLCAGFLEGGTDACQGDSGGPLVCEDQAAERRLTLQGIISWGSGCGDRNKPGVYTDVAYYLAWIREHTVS
Sequence (P00748 20-372 partner limits assumed): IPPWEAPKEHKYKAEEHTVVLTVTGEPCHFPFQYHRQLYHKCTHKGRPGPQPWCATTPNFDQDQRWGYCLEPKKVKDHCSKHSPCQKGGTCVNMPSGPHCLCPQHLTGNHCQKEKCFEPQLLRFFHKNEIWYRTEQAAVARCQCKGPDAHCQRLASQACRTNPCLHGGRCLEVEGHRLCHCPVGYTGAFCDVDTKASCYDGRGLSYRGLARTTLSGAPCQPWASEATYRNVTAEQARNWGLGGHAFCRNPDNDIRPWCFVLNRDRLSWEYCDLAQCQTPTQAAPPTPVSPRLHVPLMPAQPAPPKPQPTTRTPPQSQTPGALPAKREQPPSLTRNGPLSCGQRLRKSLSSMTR
reported-endpoint: IC50

| compound | recorded-result |
| --- | --- |
| CN1C(C)(C)CC(Nc2ncc(C(=O)NCc3ccc4c(N)nccc4c3)cc2Cl)CC1(C)C | 10 to 40 µM |
| COc1cc2c(N)nccc2cc1CNC(=O)c1nccnc1NCC1CCN(C)CC1 | 1 to 3 µM |
| Nc1nccc2cc(CNC(=O)c3cncc(-c4ccccc4)c3)ccc12 | 10 to 40 µM |
| CN1CCC(CNc2nccnc2C(=O)N[C@@H]2CCc3c2ccnc3N)CC1 | 3 to 10 µM |
| Nc1nccc2cc(CNC(=O)c3cc(Cl)cnc3NCC(=O)NC3CCCC3)ccc12 | 10 to 40 µM |
| CC(C)CN1CCC(Nc2ncc(C(=O)NCc3ccc4c(N)nccc4c3)cc2Cl)CC1 | 10 to 40 µM |
| CN(c1cccc(Cl)c1)c1ncc(Cl)cc1C(=O)NCc1ccc2c(N)nccc2c1 | 10 to 40 µM |
| Nc1nccc2cc(CNC(=O)c3cc(Cl)cnc3NCCCOc3ccccc3)ccc12 | 10 to 40 µM |
| Nc1nccc2cc(CNC(=O)c3cnc(NCC4CCOCC4)c(Cl)c3)ccc12 | 3 to 10 µM |
| CC(Nc1ncc(Cl)cc1C(=O)NCc1ccc2c(N)nccc2c1)C1CCN(C)CC1 (stereo not drawn) | 0.3 to 1 µM |
| CC(=O)N1CCC(CNc2ncc(Cl)cc2C(=O)NCc2ccc3c(N)nccc3c2)CC1 | 3 to 10 µM |
| CN(C)c1ccc(Oc2ncc(Cl)cc2C(=O)NCc2ccc3c(N)nccc3c2)cc1 | 10 to 40 µM |
| CN(C)CCNc1ncc(Cl)cc1C(=O)NCc1ccc2c(N)nccc2c1 | 1 to 3 µM |
| Nc1nccc2cc(CNC(=O)c3cnc(Oc4ccc(Cl)cc4)c(Cl)c3)ccc12 | 10 to 40 µM |
| CN(C)c1cccc(CNc2ncc(Cl)cc2C(=O)NCc2ccc3c(N)nccc3c2)c1 | 10 to 40 µM |

* * *

In what follows, each item is paired with its IC50 for Human Factor XIIa (Homo sapiens, UniProt P00748).

| compound | IC50 |
| --- | --- |
| Nc1nccc2cc(CNC(=O)c3cc(Cl)cnc3NCC3CCN(Cc4nccs4)CC3)ccc12 | 3 to 10 µM |
| CN(c1ncc(Cl)cc1C(=O)NCc1ccc2c(N)nccc2c1)C1CCOCC1 | 10 to 40 µM |
| Nc1nccc2cc(CNC(=O)c3cc(Cl)cnc3N3CC(O)C3)ccc12 | 10 to 40 µM |
| CN(c1ccccc1)c1ncc(Cl)cc1C(=O)NCc1ccc2c(N)nccc2c1 | 10 to 40 µM |
| COCCN1CCC(CNc2ncc(Cl)cc2C(=O)NCc2ccc3c(N)nccc3c2)CC1 | 0.3 to 1 µM |
| CCN(CC)CCCOc1ncc(Cl)cc1C(=O)NCc1ccc2c(N)nccc2c1 | 10 to 40 µM |
| CN1CCC(CNc2ncc(C3CC3)cc2C(=O)NCc2ccc3c(N)nccc3c2)CC1 | 0.3 to 1 µM |
| Nc1nccc2cc(CNC(=O)c3cc(Cl)cc(CN4CCN(CC5CCCC5)CC4)c3)ccc12 | 3 to 10 µM |
| CC(C)N1CCCC(C(=O)Nc2ncc(Cl)cc2C(=O)NCc2ccc3c(N)nccc3c2)C1 (stereo not shown) | 3 to 10 µM |
| CN1CCC(CNc2nc(C3CC3)ccc2C(=O)NCc2ccc3c(N)nccc3c2)CC1 | 1 to 3 µM |
| Cn1cnc2cc(Oc3ncc(C(=O)NCc4ccc5c(N)nccc5c4)cc3Cl)ccc21 | 3 to 10 µM |
| Nc1nccc2cc(CNC(=O)c3cc(Cl)cnc3NCCN3CCCCC3)ccc12 | 1 to 3 µM |
| COc1ccccc1Oc1ncc(C(=O)NCc2ccc3c(N)nccc3c2)cc1Cl | 10 to 40 µM |

Values from patent US20220298141A1
